System name: human recombinant mGluR5 (Homo sapiens, UniProt P41594)
Construct: cultured with tetracycline, hygromycin and geneticin; tetracycline withdrawn 3-7 days before the assay
Sequence (P41594 21-1212): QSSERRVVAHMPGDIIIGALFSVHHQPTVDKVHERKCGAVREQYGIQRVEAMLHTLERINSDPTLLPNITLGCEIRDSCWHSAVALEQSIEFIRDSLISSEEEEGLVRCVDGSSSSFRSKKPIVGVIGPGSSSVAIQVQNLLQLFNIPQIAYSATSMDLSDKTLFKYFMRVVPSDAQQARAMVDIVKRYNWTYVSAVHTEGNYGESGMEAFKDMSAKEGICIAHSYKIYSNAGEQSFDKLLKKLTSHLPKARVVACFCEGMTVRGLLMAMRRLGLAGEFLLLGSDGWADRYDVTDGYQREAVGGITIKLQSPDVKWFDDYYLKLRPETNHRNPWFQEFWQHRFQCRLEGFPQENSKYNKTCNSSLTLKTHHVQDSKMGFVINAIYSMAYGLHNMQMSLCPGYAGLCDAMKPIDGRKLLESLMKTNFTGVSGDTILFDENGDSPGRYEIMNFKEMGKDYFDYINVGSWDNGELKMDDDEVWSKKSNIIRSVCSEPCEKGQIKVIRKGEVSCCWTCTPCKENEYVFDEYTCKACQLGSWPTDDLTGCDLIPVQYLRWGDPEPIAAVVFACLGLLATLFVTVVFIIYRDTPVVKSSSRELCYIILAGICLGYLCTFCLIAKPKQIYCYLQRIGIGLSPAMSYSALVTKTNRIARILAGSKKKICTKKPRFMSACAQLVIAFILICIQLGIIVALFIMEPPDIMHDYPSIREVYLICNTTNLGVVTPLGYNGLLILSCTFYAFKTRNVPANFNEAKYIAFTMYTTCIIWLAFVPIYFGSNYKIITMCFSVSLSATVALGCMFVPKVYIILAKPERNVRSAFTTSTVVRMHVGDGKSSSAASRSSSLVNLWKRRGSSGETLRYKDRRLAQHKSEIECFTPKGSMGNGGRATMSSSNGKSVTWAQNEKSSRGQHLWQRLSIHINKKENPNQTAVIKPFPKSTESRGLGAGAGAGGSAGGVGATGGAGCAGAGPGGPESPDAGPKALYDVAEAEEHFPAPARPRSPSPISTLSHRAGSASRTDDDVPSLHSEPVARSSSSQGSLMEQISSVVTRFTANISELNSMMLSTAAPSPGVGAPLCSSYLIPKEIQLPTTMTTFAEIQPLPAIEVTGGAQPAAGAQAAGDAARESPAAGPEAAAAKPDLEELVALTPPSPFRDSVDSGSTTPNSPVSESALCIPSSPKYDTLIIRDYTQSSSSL
Test details: positive modulation of mGluR5, calcium based FLIPR assay in HEK 293 cells
Condition description: HEK 293 cell line expressing human recombinant mGluR5; peak height of Ca release fluorescence signal after glutamate at approximately 5% basal stimulation; nonlinear regression
EC50 less than 200 nM is Y; EC50 greater than or equal to 200 nM is N.

[
  {
    "Substance smiles": "CCc1cc(-c2cccc(C#N)c2)nn1CC(=O)N1CCN(c2ncccn2)CC1",
    "System name": "human recombinant mGluR5 (Homo sapiens, UniProt P41594)",
    "Category": "N"
  },
  {
    "Substance smiles": "COc1cc(N2CCN(C(=O)Cn3nc(-c4ccc(OC(F)F)cn4)cc3-c3ccccc3)CC2)ncn1",
    "System name": "human recombinant mGluR5 (Homo sapiens, UniProt P41594)",
    "Category": "Y"
  },
  {
    "Substance smiles": "CCCc1cc(-c2ccc(F)c(C)c2)nn1CC(=O)N1CCN(c2ncc(OC)cn2)CC1",
    "System name": "human recombinant mGluR5 (Homo sapiens, UniProt P41594)",
    "Category": "Y"
  },
  {
    "Substance smiles": "COc1cc(N2CCN(C(=O)Cn3nc(-c4ccc(F)c(OC)c4)cc3-c3ccccc3)CC2)ncn1",
    "System name": "human recombinant mGluR5 (Homo sapiens, UniProt P41594)",
    "Category": "Y"
  },
  {
    "Substance smiles": "Cc1cc(-c2cc(C3CC3)n(CC(=O)N3CCN(c4cccnn4)CC3)n2)ccc1F",
    "System name": "human recombinant mGluR5 (Homo sapiens, UniProt P41594)",
    "Category": "N"
  },
  {
    "Substance smiles": "Cc1cnc(-c2cc(-c3ccccc3)nn2CC(=O)N2CCN(c3ncccn3)CC2)cc1C",
    "System name": "human recombinant mGluR5 (Homo sapiens, UniProt P41594)",
    "Category": "N"
  },
  {
    "Substance smiles": "COc1ccnc(N2CCN(C(=O)Cn3nc(-c4ccc(F)c(C)c4)cc3C3CC3)CC2)c1",
    "System name": "human recombinant mGluR5 (Homo sapiens, UniProt P41594)",
    "Category": "N"
  },
  {
    "Substance smiles": "Cc1cc(-c2cc(-c3ccccc3)n(CC(=O)N3CCN(c4ccccc4)CC3)n2)ccc1F",
    "System name": "human recombinant mGluR5 (Homo sapiens, UniProt P41594)",
    "Category": "N"
  },
  {
    "Substance smiles": "O=C(Cn1nc(-c2ccc(OC(F)F)cc2)cc1-c1ccccc1)N1CCN(c2ncccn2)CC1",
    "System name": "human recombinant mGluR5 (Homo sapiens, UniProt P41594)",
    "Category": "Y"
  },
  {
    "Substance smiles": "O=C(Cn1nc(-c2ccccc2)cc1-c1ccccc1)N1CCN(c2ncncn2)CC1",
    "System name": "human recombinant mGluR5 (Homo sapiens, UniProt P41594)",
    "Category": "Y"
  }
]

* * *

System name: human recombinant mGluR5 (Homo sapiens, UniProt P41594)
Construct: cultured with tetracycline, hygromycin and geneticin; tetracycline withdrawn 3-7 days before the assay
Test details: positive modulation of mGluR5, calcium based FLIPR assay in HEK 293 cells
Condition description: HEK 293 cell line expressing human recombinant mGluR5; peak height of Ca release fluorescence signal after glutamate at approximately 5% basal stimulation; nonlinear regression
molecules and their reported EC50

[
  {
    "Substance smiles": "CCc1cc(-c2cccc(Cl)c2)nn1CC(=O)N1CCN(c2ncc(OC)cn2)CC1",
    "EC50 (nM)": 65
  },
  {
    "Substance smiles": "Cc1cc(-c2cc(-c3ccccc3)n(CC(=O)N3CCN(c4ccccn4)CC3)n2)ccc1F",
    "EC50 (nM)": 11
  },
  {
    "Substance smiles": "Cc1cc(-c2cc(C3CCCCC3)n(CC(=O)N3CCN(c4cccnn4)CC3)n2)ccc1F",
    "EC50 (nM)": 100
  },
  {
    "Substance smiles": "COc1cnc(N2CCN(C(=O)Cn3nc(-c4cccc(C#N)c4)cc3-c3ccccc3)CC2)nc1",
    "EC50 (nM)": 11
  },
  {
    "Substance smiles": "O=C(Cn1nc(-c2ccccc2)cc1-c1ccccc1)N1CCN(c2ccc(Cl)cn2)CC1",
    "EC50 (nM)": 373
  }
]
